experiment: Glycomer activity determined as growth inhibition of human glioblastoma LNZ308 cells; type: functional, cell-based; conditions: Homo sapiens, LNZ308
Overview of recorded IC50 for various compounds

Looking for the measured IC50 of `C=CCO[C@@H]1[C@H](OC(=O)CC)[C@H](Oc2ccc(I)cc2)O[C@@H](COS(=O)(=O)c2cccc(C(F)(F)F)c2)[C@H]1OCc1ccc(OC)cc1` , can you help?
> 50 µM

---

The following compounds are listed with their measured IC50 values.
assay: Glycomer activity determined as growth inhibition of human glioblastoma LN18 cells; assay type: functional, cell-based; settings: Homo sapiens, LN-18
Number only, in µM; omit the unit.

C=CCO[C@H]1[C@H](O)[C@H](COCc2ccccc2)O[C@@H](Oc2ccc(I)cc2)[C@H]1OC(=O)CC; 11.5
C=CCO[C@H]1[C@H](O)[C@H](COS(=O)(=O)c2cccc(C(F)(F)F)c2)O[C@@H](Oc2ccc(I)cc2)[C@H]1OC(C)=O; 12.5

Param item = C=CCOC1C(O)C(CNS(=O)(=O)c2cccc(C(F)(F)F)c2)OC(Oc2ccc(I)cc2)C1OC(=O)C(C)C (configuration not stated) ; retrieve measured IC50.
12.5

---

Entries and their measured pIC50 follow.
experiment: Glycomer activity determined as growth inhibition of human glioblastoma LN18 cells; type: functional, cell-based; details: Homo sapiens, LN-18
For clarity, pIC50 is expressed as the negative log10 of concentration in mol/L.

C=CCO[C@H]1[C@@H](O)[C@H](COCc2ccccc2)O[C@@H](Oc2ccc(I)cc2)[C@H]1OC(=O)CCC; 4.70

Look at this molecule and give its reported pIC50. `C=CCO[C@H]1[C@H](O)[C@H](COCc2ccccc2)O[C@@H](Oc2ccc(I)cc2)[C@H]1OC(=O)CCC`
5.12

Give its pIC50 value. Item: `C=CCO[C@H]1[C@H](O)[C@H](COS(=O)(=O)c2cccc(C(F)(F)F)c2)O[C@@H](Oc2ccc(I)cc2)[C@H]1OC(=O)C(C)C`
4.90

---

assay: Glycomer activity determined as growth inhibition of human glioblastoma LNZ308 cells; assay type: functional, cell-based; conditions: Homo sapiens, LNZ308
READOUT_TYPE: pIC50
// pIC50: -log10(molar conc.)

The examples below pair each entry with its known result.
C=CCOC1C(O)C(CNS(=O)(=O)c2cccc(C(F)(F)F)c2)OC(Oc2ccc(I)cc2)C1O (stereo not drawn); 4.57
C=CCO[C@H]1[C@H](O)[C@H](COCc2ccccc2)O[C@@H](Oc2ccc(I)cc2)[C@H]1OC(=O)CC; 4.76
C=CCO[C@H]1[C@H](O)[C@H](COS(=O)(=O)c2cccc(C(F)(F)F)c2)O[C@@H](Oc2ccc(I)cc2)[C@H]1OC(=O)CCC (stereo in doubt; 16a); 4.54
C=CCO[C@H]1[C@H](O)[C@H](COS(=O)(=O)c2cccc(C(F)(F)F)c2)O[C@@H](Oc2ccc(I)cc2)[C@H]1OC(=O)C(C)C; 5.07
C=CCO[C@H]1[C@@H](O)[C@H](COCc2ccccc2)O[C@@H](Oc2ccc(I)cc2)[C@H]1OC(=O)CCC; 4.43

Need pIC50 of `C=CCO[C@H]1[C@H](O)[C@H](COS(=O)(=O)c2cccc(C(F)(F)F)c2)O[C@@H](Oc2ccc(I)cc2)[C@H]1OC(C)=O` , thanks.
4.89

Please look up its pIC50: `C=CCO[C@H]1[C@@H](O)[C@H](COS(=O)(=O)c2cccc(C(F)(F)F)c2)O[C@@H](Oc2ccc(I)cc2)[C@H]1OC(=O)C(C)C`
4.74

Requested read-out: pIC50. Entry: `C=CCO[C@@H]1[C@H](O)[C@H](Oc2ccc(I)cc2)O[C@@H](COS(=O)(=O)c2cccc(C(F)(F)F)c2)[C@H]1O`
4.72

Query (molecule): `C=CCO[C@H]1[C@H](O)[C@H](COS(=O)(=O)c2cccc(C(F)(F)F)c2)O[C@H](Oc2ccc(I)cc2)[C@@H]1OC(=O)CCC` ; field requested: pIC50
4.38

Returns the measured pIC50 for the input molecule. Input: `C=CCO[C@H]1[C@H](O)[C@H](COCc2ccccc2)O[C@@H](Oc2ccc(I)cc2)[C@H]1OC(=O)CCC`
4.94
